Where do these numbers come from? They come from patent US3985875A.

Parameter Changes of blood pressure: see the listing below.
# Test system: renal hypertensive rats
# Assay comment: Antihypertensive activity in renal hypertensive rats, i.m. (Table 3)
# Format: in vivo, rat
# Conditions: 30 mg/kg/day i.m.; 6th day, 0 h (immediately before administration)

Compound	Target of assay	Changes of blood pressure
CCC=CCC=CCC=CCCCCCCCC(=O)NCCCOP(=O)(O)OCCN	renal hypertensive rats	-29 mmHg
CCC=CCC=CCC=CCCCCCCCC(=O)OCC(COP(=O)(O)OCCN)OC(=O)CCCCCCCCCCCCCCCCC (racemic) [(b), reference compound]	renal hypertensive rats	-10 mmHg
CCC=CCC=CCC=CCCCCCCCC(=O)NCCOP(=O)(O)OCCN	renal hypertensive rats	-24 mmHg
CCCCCC=CCC=CCCCCCCCC(=O)NCCCOP(=O)(O)OCCN	renal hypertensive rats	-27 mmHg
CCCCCC=CCC=CCCCCCCCC(=O)NCCOP(=O)(O)OCCN	renal hypertensive rats	-35 mmHg
CCCCCC=CCC=CCC=CCC=CCCCC(=O)OCC(COP(=O)(O)OCCN)OC(=O)CCCCCCCCCCCCCCCCC (racemic) [(a), reference compound]	renal hypertensive rats	-13 mmHg
